Test system: PTP1B
protocol summary: Phosphatase activity of PTP1B constructs against pNPP (enzyme assay)
Type: biochemical, human
run conditions: pNPP substrate, pH 7.5, 0.015 μM PTP1B (FIG. 27, 32A, 32B)
reported metric: kcat (s⁻¹)
One number for each entry, in s⁻¹.

Sample answers from the record:
| molecule | numeric value |
| --- | --- |
| PTP1BL195A: PTP1B1-301 mutant with mutation in the α3 helix (protein, UniProt P18031 1-301, looked up, variant L195A) MEMEKEFEQIDKSGSWAAIYQDIRHEASDFPCRVAKLPKNKNRNRYRDVSPFDHSRIKLHQEDNDYINASLIKMEEAQRSYILTQGPLPNTCGHFWEMVWEQKSRGVVMLNRVMEKGSLKCAQYWPQKEEKEMIFEDTNLKLTLISEDIKSYYTVRQLELENLTTQETREILHFHYTTWPDFGVPESPASFLNFAFKVRESGSLSPEHGPVVVHCSAGIGRSGTFCLADTCLLLMDKRKDPSSVDIKKVLLEMRKFRMGLIQTADQLRFSYLAVIEGAKFIMGDSSVQDQWKELSHEDLEP | 4.1 |
| PTP1BF194A: PTP1B1-301 mutant with mutation in the α3 helix (protein, UniProt P18031 1-301, looked up, fragment F194A) MEMEKEFEQIDKSGSWAAIYQDIRHEASDFPCRVAKLPKNKNRNRYRDVSPFDHSRIKLHQEDNDYINASLIKMEEAQRSYILTQGPLPNTCGHFWEMVWEQKSRGVVMLNRVMEKGSLKCAQYWPQKEEKEMIFEDTNLKLTLISEDIKSYYTVRQLELENLTTQETREILHFHYTTWPDFGVPESPASFLNALFKVRESGSLSPEHGPVVVHCSAGIGRSGTFCLADTCLLLMDKRKDPSSVDIKKVLLEMRKFRMGLIQTADQLRFSYLAVIEGAKFIMGDSSVQDQWKELSHEDLEP | 5.3 |

Q: What value of kcat has been recorded for this entry: PTP1BS295A: PTP1B1-301 mutant with point mutation in the α7 helix (protein, UniProt P18031 1-301, looked up, variant S295A) MEMEKEFEQIDKSGSWAAIYQDIRHEASDFPCRVAKLPKNKNRNRYRDVSPFDHSRIKLHQEDNDYINASLIKMEEAQRSYILTQGPLPNTCGHFWEMVWEQKSRGVVMLNRVMEKGSLKCAQYWPQKEEKEMIFEDTNLKLTLISEDIKSYYTVRQLELENLTTQETREILHFHYTTWPDFGVPESPASFLNFLFKVRESGSLSPEHGPVVVHCSAGIGRSGTFCLADTCLLLMDKRKDPSSVDIKKVLLEMRKFRMGLIQTADQLRFSYLAVIEGAKFIMGDSSVQDQWKELAHEDLEP
Ans: 4.5
